Source: patent US20160194358A1

- System: Escherichia coli strain MC4100 IMP-4213, which harbors an LptD mutation
- measurement_setup: E. coli MC4100 IMP-4213; 35° C., 22 hours
Where a SMILES comes first, the peptide text is derived from it. [ ]: non-standard residue; d: D form. The star is where a group is joined. boroAla((+)-pinanediol) = C[C@H](N*)B1O[C@@H]2C[C@@H]3C[C@@H](C3(C)C)[C@]2(C)O1; Benzoyl(4-(4-Cl-Ph)) = O=C(c1ccc(-c2ccc(Cl)cc2)cc1)*; Ethanesulfonyl(2-NHDecyl) = CCCCCCCCCCNCCS(=O)(=O)*; Propanoyl(3-decylamino) = CCCCCCCCCCNCCC(=O)*; X18 = CCCCc1ccc(-c2ccc(S(=O)(=O)*)cn2)cc1; X28 = C[C@H](N*)C(=O)c1ncccn1; boroAla = C[C@H](N*)B(O)O; Dab = NCC[C@H](N)C(=O)O; Dap = NC[C@H](N)C(=O)O
assay_metric: MIC (μg/mL) E. coli (µg/mL)
Reply with just the number (in µg/mL).

Please review the entries below; each comes with its answer.
| compound | target_or_system | MIC (μg/mL) E. coli / µg/mL |
| --- | --- | --- |
| CCCCCCCCCCNCCC(=O)N[C@@H](CN)C(=O)N[C@H](C(=O)N[C@@H](C)C(=O)N[C@@H](CC(N)=O)C(=O)N[C@@H](C)B(O)O)[C@@H](C)O [Compound 222] ({Propanoyl(3-decylamino)}-[Dap]TAN-boroAla) | Escherichia coli strain MC4100 IMP-4213, which harbors an LptD mutation | 8 |
| CCCCc1ccc(-c2ccc(S(=O)(=O)N[C@@H](CCN)C(=O)N[C@H](C(=O)N[C@@H](C)C(=O)N[C@@H](CCCCN)C(=O)N[C@@H](C)B3O[C@@H]4C[C@@H]5C[C@@H](C5(C)C)[C@]4(C)O3)[C@@H](C)O)cn2)cc1 [Compound 232] (X18-[Dab]TAK-{boroAla((+)-pinanediol)}) | Escherichia coli strain MC4100 IMP-4213, which harbors an LptD mutation | 11 |
| C[C@H](NC(=O)[C@@H](NC(=O)[C@H](CN)NC(=O)c1ccc(-c2ccc(Cl)cc2)cc1)[C@@H](C)O)C(=O)N[C@@H](CCCCN)C(=O)N[C@@H](C)C(=O)c1ncccn1 [Compound 267] ({Benzoyl(4-(4-Cl-Ph))}-[Dap]TAK-X28) | Escherichia coli strain MC4100 IMP-4213, which harbors an LptD mutation | 32 |

The record that follows has no MIC (μg/mL) E. coli shown yet.
Given the compound CCCCCCCCCCNCCS(=O)(=O)N[C@@H](CCCCN)C(=O)N[C@H](C(=O)N[C@@H](C)C(=O)N[C@@H](CCCCN)C(=O)N[C@@H](C)B(O)O)[C@@H](C)O [Compound 238] ({Ethanesulfonyl(2-NHDecyl)}-KTAK-boroAla) , what is its reported MIC (μg/mL) E. coli?
32
